# System: retinal vascular endothelial cell
# assay notes: MTT assay, apoptosis of retinal vascular endothelial cell caused by the lack of serum
# Assay type: cell-based, human
# stated conditions: FBS free medium, 10 μg/ml, 24 hours; FIG. 3c
measured endpoint: apoptosis and cell viability of retinal vascular endothelial cells (MTT assay)

>>> endpoint_value("CC(C)=CCC[C@](C)(O[C@@H]1O[C@H](CO)[C@@H](O)[C@H](O)[C@H]1O)[C@H]1CC[C@]2(C)[C@@H]1[C@H](O)C[C@@H]1[C@@]3(C)CC[C@H](O)C(C)(C)[C@@H]3[C@@H](O[C@@H]3O[C@H](CO)[C@@H](O)[C@H](O)[C@H]3O[C@@H]3O[C@@H](C)[C@H](O)[C@@H](O)[C@H]3O)C[C@]12C [Re, ginsenoside Re, reference compound]")
"did not"
>>> endpoint_value("C=C(CCC=C(C)C)[C@H]1CC[C@]2(C)[C@@H]1[C@H](O)C[C@@H]1[C@@]3(C)CC[C@H](O[C@@H]4O[C@H](CO)[C@@H](O)[C@H](O)[C@H]4O[C@@H]4O[C@H](CO)[C@@H](O)[C@H](O)[C@H]4O)C(C)(C)[C@@H]3CC[C@]12C [Rk1, ginsenoside Rk1]")
"inhibited the apoptosis"
>>> endpoint_value("CC(C)=CCC[C@](C)(O[C@@H]1O[C@H](CO[C@@H]2O[C@H](CO)[C@@H](O)[C@H](O)[C@H]2O)[C@@H](O)[C@H](O)[C@H]1O)[C@H]1CC[C@]2(C)[C@@H]1[C@H](O)C[C@@H]1[C@@]3(C)CC[C@H](O[C@@H]4O[C@H](CO)[C@@H](O)[C@H](O)[C@H]4O[C@@H]4O[C@H](CO)[C@@H](O)[C@H](O)[C@H]4O)C(C)(C)[C@@H]3CC[C@]12C [Rb1, ginsenoside Rb1, reference compound]")
"did not"
>>> endpoint_value("CC(C)=CCC[C@](C)(O)[C@H]1CC[C@]2(C)[C@@H]1[C@H](O)C[C@@H]1[C@@]3(C)CC[C@H](O[C@@H]4O[C@H](CO)[C@@H](O)[C@H](O)[C@H]4O[C@@H]4O[C@H](CO)[C@@H](O)[C@H](O)[C@H]4O)C(C)(C)[C@@H]3CC[C@]12C [Rg3, ginsenoside Rg3]")
"inhibited the apoptosis"
>>> endpoint_value("CC(C)=CCC[C@](C)(O[C@@H]1O[C@H](CO)[C@@H](O)[C@H](O)[C@H]1O)[C@H]1CC[C@]2(C)[C@@H]1[C@H](O)C[C@@H]1[C@@]3(C)CC[C@H](O)C(C)(C)[C@@H]3[C@@H](O[C@@H]3O[C@H](CO)[C@@H](O)[C@H](O)[C@H]3O)C[C@]12C [Rg1, ginsenoside Rg1, reference compound]")
"did not"
>>> endpoint_value("CC(C)=CC/C=C(\\C)[C@H]1CC[C@]2(C)[C@@H]1[C@H](O)C[C@@H]1[C@@]3(C)CC[C@H](O[C@@H]4O[C@H](CO)[C@@H](O)[C@H](O)[C@H]4O[C@@H]4O[C@H](CO)[C@@H](O)[C@H](O)[C@H]4O)C(C)(C)[C@@H]3CC[C@]12C [Rg5, ginsenoside Rg5]")
"inhibited the apoptosis"

All figures here come from patent US20090317496A1.
